Reference source: patent US20150359798A1

# Test system: Rho-kinase
# assay_explanation: Table 3 Rho-kinase (% of control)
# Type: cell-based
# run_conditions: 10 μM; control group = 100 (%)
recorded_endpoint: Rho-kinase (%)
Numbers only, in %.

// worked examples, Rho-kinase included
- molecule: "COc1ccccc1N1CCN(CCn2cnc3c2c(=O)n(C)c(=O)n3C)CC1"
  test_system: "Rho-kinase"
  Rho-kinase, %: 81.9
- molecule: "Cn1c(=O)c2c(ncn2CCN2CCN(c3ccccc3[N+](=O)[O-])CC2)n(C)c1=O [KMUP-3]"
  test_system: "Rho-kinase"
  Rho-kinase, %: 79.4
- molecule: "Cn1c(=O)c2c(ncn2CCN2CCN(c3ccccc3[N+](=O)[O-])CC2)n(C)c1=O [KMUP-4]"
  test_system: "Rho-kinase"
  Rho-kinase, %: 83.7

Proceeding to the next molecule to report its Rho-kinase.
Problem: I would be grateful if you could share the reported Rho-kinase for Cn1c(=O)c2c(ncn2CCN2CCN(c3ccccc3Cl)CC2)n(C)c1=O .
Solution: 75.8
